Recorded values, source paper PMC2690590.

# targetDesc: DRB3*0301 (DRA*0101/DRB3*0301) (Homo sapiens, UniProt P01903+P79483, A169T/A212P/D57E/G115V/L67V/Q178H/R103Q/R40L/Y55F)
# Construct: DRA*01011-181LZFos; DRB3*03011-190LZJunBSP; made in house
# test: Direct LOCI peptide-MHC-II binding assay, DRB3*0301
Where no end group is shown, it is not given here.
measuredMetric: Kd

INSERT INTO assay_data (sequenceentry, reportedresult) VALUES
  ('WMARRHAER [Brucella]', '> 5 µM');
